assay: Microsome stability assay, mouse liver microsomes; assay type: in vitro ADME; conditions: mouse, liver microsomes (pooled from multiple donors); formic acid salt; 37° C., 0.5 mg/ml microsomal protein, NADPH regenerating system; read-out: Mouse Liver Microsome T1/2
result.type: half-life at 1 NM

[ask] What half-life at 1 NM value was documented for this compound, "CCc1cc(-c2ccc(NS(=O)(=O)c3ccccc3Cl)cc2C)cc2cnc(N[C@H]3CC[C@H](N)CC3)nc12" ?
[reply] 43.5 min

* * *

What follows is a record of pIC50 for UniProt:O75460.
pIC50: −log10 of the molar value. Where a name gives a salt, the structure may show the parent alone.

Some molecules with recorded pIC50:
In [3]: df
Out[3]:
                                   molecule   target_system  result_type  value_reported
0  CCc1cc(-c2cnc(NS(=O)(=O)c3ccccc3Cl)s2)cc2cnc(N[C@H]3CC[C@H](N)CC3)nc12 [41; Formic Acid]  UniProt:O75460        pIC50          ≥ 8.30
1  CCc1cc(-c2ccc(NS(=O)(=O)c3ccccc3Cl)nc2OC)cc2cnc(N[C@H]3CC[C@@H](N)CC3)nc12 [140; Formic Acid]  UniProt:O75460        pIC50          ≥ 8.30
2  COc1cc(-c2ccc(NS(=O)(=O)c3ccccc3Cl)cc2C)cc2cnc(N[C@H]3CC[C@H](N)CC3)nc12 [36; Formic Acid]  UniProt:O75460        pIC50          ≥ 8.30
3  CCc1cc(-c2ccc(NS(=O)(=O)c3ccccc3Cl)cn2)cc2cnc(N[C@H]3CC[C@H](N)CC3)nc12.O=CO [28; Formic Acid]  UniProt:O75460        pIC50          ≥ 8.30
4  CCc1cc(-c2ccc(NS(=O)(=O)c3ccccc3Cl)nc2OC)cc2cnc(N[C@H]3CC[C@H](N)CC3)nc12 [37; HCl ^]  UniProt:O75460        pIC50          ≥ 8.30

[ask] GET /values?readout=pIC50&item= CCc1cc(-c2cc(F)c(NS(=O)(=O)c3ccccc3Cl)nc2OC)cc2cnc(N[C@H]3CC[C@@](C)(N(C)C)CC3)nc12 [144; Formic Acid]
[reply] 7.00 to 7.30

[ask] What does the record list as pIC50 for CCc1cc(-c2cnc(NS(=O)(=O)c3ccccc3Cl)nc2OC)cc2cnc(N[C@H]3CC[C@H](N)CC3)nc12.O=CO [46; Formic Acid] ?
[reply] ≥ 8.30

[ask] // lookup pIC50 for CCc1cc(-c2ccc(NS(=O)(=O)c3ccccc3Cl)c(F)c2)cc2cnc(N[C@H]3CC[C@H](NC)CC3)nc12 [60; Formic Acid]
[reply] ≥ 8.30

[ask] May I ask what pIC50 has been recorded for CCc1cc(-c2ncc(NS(=O)(=O)c3ccccc3Cl)cn2)cc2cnc(N[C@H]3CC[C@H](N)CC3)nc12.O=CO [33; Formic Acid] ?
[reply] ≥ 8.30

* * *

Target or system IRE1a (Homo sapiens, UniProt O75460): recorded IC50 listed per item.

>>> df
                                test_smiles  value_reported
0  CCc1cc(-c2ccc(NS(=O)(=O)c3ccccc3Cl)c(F)c2)cc2cnc(N[C@H]3CC[C@H](N)CC3)nc12.O=CO          ≤ 5 nM
1  CCc1cc(-c2nnc(NS(=O)(=O)c3ccccc3Cl)cc2OC)cc2cnc(N[C@H]3CC[C@H](N)CC3)nc12.O=CO          ≤ 5 nM

Switching to the query record.
[ask] Write down the reported IC50 of "CCc1cc(-c2ncc(NS(=O)(=O)c3ccccc3Cl)cc2OC)cc2cnc(N[C@H]3CC[C@H](N)CC3)nc12" , test system: IRE1a (Homo sapiens, UniProt O75460).
Sequence (O75460 19-977): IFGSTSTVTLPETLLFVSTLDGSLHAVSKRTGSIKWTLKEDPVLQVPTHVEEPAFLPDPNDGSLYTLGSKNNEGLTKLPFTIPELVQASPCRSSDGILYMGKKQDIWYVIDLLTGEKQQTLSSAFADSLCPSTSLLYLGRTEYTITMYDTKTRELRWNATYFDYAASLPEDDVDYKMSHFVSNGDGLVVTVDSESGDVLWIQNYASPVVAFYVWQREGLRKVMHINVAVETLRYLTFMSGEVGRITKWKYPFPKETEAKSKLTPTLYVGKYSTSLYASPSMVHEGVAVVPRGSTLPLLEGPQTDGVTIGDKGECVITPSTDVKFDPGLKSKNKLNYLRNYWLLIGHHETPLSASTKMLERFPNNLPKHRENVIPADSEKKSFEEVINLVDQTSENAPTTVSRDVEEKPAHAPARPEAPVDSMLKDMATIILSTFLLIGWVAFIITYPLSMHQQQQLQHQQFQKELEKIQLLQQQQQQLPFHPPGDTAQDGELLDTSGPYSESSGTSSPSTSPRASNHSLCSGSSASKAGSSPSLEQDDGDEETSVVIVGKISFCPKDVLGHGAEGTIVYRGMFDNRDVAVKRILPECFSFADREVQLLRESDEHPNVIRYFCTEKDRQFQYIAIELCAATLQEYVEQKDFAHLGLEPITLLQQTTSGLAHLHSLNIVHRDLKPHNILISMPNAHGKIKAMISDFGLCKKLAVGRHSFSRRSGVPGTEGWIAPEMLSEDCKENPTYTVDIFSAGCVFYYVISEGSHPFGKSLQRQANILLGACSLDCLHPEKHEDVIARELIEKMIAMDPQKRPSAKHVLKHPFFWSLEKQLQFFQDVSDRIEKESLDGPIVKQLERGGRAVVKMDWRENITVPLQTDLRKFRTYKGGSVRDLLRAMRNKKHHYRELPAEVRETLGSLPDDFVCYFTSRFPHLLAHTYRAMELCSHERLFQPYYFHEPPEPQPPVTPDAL
[reply] ≤ 5 nM
